All figures here come from patent US20140038920A1.

System: TFEB
assayInfo: High content TFEB-GFP nuclear translocation assay
Assay type: cell-based
particulars: Homo sapiens; mobilization of cytosolic TFEB to the nucleus; TFEB-GFP HeLa cells, 3 h at 37° C. in RPMI, ten concentrations 50 μM to 2.54 nM, 4 runs; read-out: Average EC50
valueType: EC50

molecule | readoutValue
CCN(CC)CCNC(=O)c1c(C)[nH]c(/C=C2\C(=O)Nc3ccc(F)cc32)c1C [Sunitinib Malate] | < 7 µM
Cc1nc(N)sc1-c1ccnc(Nc2ccc(N3CCOCC3)cc2)n1 | < 7 µM
COc1cc2c(Oc3ccc(NC(=O)C4(C(=O)Nc5ccc(F)cc5)CC4)cc3F)ccnc2cc1OCCCN1CCOCC1 | < 7 µM
Oc1cccc(-c2nc(N3CCOCC3)c3oc4ncccc4c3n2)c1 | < 7 µM
Cc1ccc([N+](=O)[O-])cc1S(=O)(=O)N(C)/N=C/c1cnc2ccc(Br)cn12 | < 7 µM
C[C@@H](Oc1cc(-n2cnc3ccc(CN4CCN(C)CC4)cc32)sc1C(N)=O)c1ccccc1C(F)(F)F | < 7 µM
CCN1CCN(C(=O)Cc2ccc(Nc3ncc(F)c(Nc4ccc(C(=O)Nc5ccccc5Cl)cc4)n3)cc2)CC1 | < 7 µM
Nc1ccc(-c2ccc3ncc4ccc(=O)n(-c5cccc(C(F)(F)F)c5)c4c3c2)cn1 | < 7 µM
CCN1CCN(Cc2ccc(-c3cc4c(N[C@H](C)c5ccccc5)ncnc4[nH]3)cc2)CC1 | < 7 µM
Cc1ccc(C(=O)Nc2ccc(CN3CCN(C)CC3)c(C(F)(F)F)c2)cc1C#Cc1cnc2cccnn12 | < 7 µM
O=C(NOC[C@H](O)CO)c1ccc(F)c(F)c1Nc1ccc(I)cc1F | > 15 µM
CO[C@H]1C[C@@H]2CC[C@@H](C)[C@@](O)(O2)C(=O)C(=O)N2CCCC[C@H]2C(=O)O[C@H]([C@H](C)C[C@@H]2CC[C@@H](OC(=O)C(C)(CO)CO)[C@H](OC)C2)CC(=O)[C@H](C)/C=C(\C)[C@@H](O)[C@@H](OC)C(=O)[C@H](C)C[C@H](C)/C=C/C=C/C=C/1C | 7 to 15 µM
CCC(=O)N1CCN(c2ccc(-n3c(=O)ccc4cnc5ccc(-c6cnc7ccccc7c6)cc5c43)cc2C(F)(F)F)CC1 | < 7 µM
FC(F)c1nc2ccccc2n1-c1nc(N2CCOCC2)nc(N2CCOCC2)n1 | < 7 µM
C[C@@H](Oc1cc(-c2cnn(C3CCNCC3)c2)cnc1N)c1c(Cl)ccc(F)c1Cl | < 7 µM
CCC1=C[C@@H]2CN(C1)Cc1c([nH]c3ccccc13)[C@@](C(=O)OC)(c1cc3c(cc1OC)N(C)[C@H]1[C@@](O)(C(=O)OC)[C@H](OC(C)=O)[C@]4(CC)C=CCN5CC[C@]31[C@@H]54)C2 | < 7 µM
CCOc1cc2ncc(C#N)c(Nc3ccc(OCc4ccccn4)c(Cl)c3)c2cc1NC(=O)/C=C/CN(C)C | > 15 µM
CN(C)C/C=C/C(=O)Nc1cc2c(Nc3ccc(F)c(Cl)c3)ncnc2cc1O[C@H]1CCOC1 | < 7 µM
CN(C)c1ccc(-c2nc3c(N4CCN(CC(=O)Nc5nccs5)CC4)c(Cl)cnc3[nH]2)cc1 | < 7 µM
Cn1cc(C2=C(c3cn(C4CCN(Cc5ccccn5)CC4)c4ccccc34)C(=O)NC2=O)c2ccccc21 | < 7 µM
Cc1cc(Nc2cc(N3CCN(C)CC3)nc(/C=C/c3ccccc3)n2)n[nH]1 | < 7 µM
O=C1NC(=O)C(Cc2ccc3nccc(-c4ccncc4)c3c2)S1 (stereo not shown) | < 7 µM
CO[C@H]1C[C@@H]2CC[C@@H](C)[C@@](O)(O2)C(=O)C(=O)N2CCCC[C@H]2C(=O)O[C@H]([C@H](C)C[C@@H]2CC[C@@H](OCCO)[C@H](OC)C2)CC(=O)[C@H](C)/C=C(\C)[C@@H](O)[C@@H](OC)C(=O)[C@H](C)C[C@H](C)/C=C/C=C/C=C/1C [Everolimus (RAD001), Everolimus] | > 15 µM
C=CC(=O)Nc1cccc(Oc2nc(Nc3ccc(N4CCN(C)CC4)cc3OC)ncc2Cl)c1 | 7 to 15 µM
COc1cc2c(Nc3ccc(Br)cc3F)ncnc2cc1OCC1CCN(C)CC1 | < 7 µM
N#CC(=C(/N)Sc1ccccc1N)/C(C#N)=C(\N)Sc1ccccc1N [drawing 34] | > 15 µM
COc1cc2c(Oc3ccc4[nH]c(C)cc4c3F)ncnc2cc1OCCCN1CCCC1 | < 7 µM
Nc1nccc(Oc2ccc(NC(=O)c3c[nH]cc(-c4ccc(F)cc4)c3=O)cc2F)c1Cl | 7 to 15 µM
